Sourced from patent US20230349919A1

target-or-test-system: T1, human IL-4Rα (hIL-4Rα) monomeric protein (human, UniProt P24394 26-232, limits assumed)
T1 construct: also called hIL-4Rα antigen; barcoded hIL-4Rα
experiment-description: Biacore (SPR)
measured-attribute: Kd (nM)
// note: answer is a bare numeric in nM

binder: Table 1 Line # 21 antibody (SP_B_cell) (antibody, human IgG4, V domains shown, Cloned with human IgG4/human Igk constants for Kd; barcode counts are of the source cell's own IgG) VH: EVQLVESGGGVVRPGGSLRLSCAASGFTFDDYGMSWVRQAPGKGLEWVSGINWNGGSTGYADSVKGRFTMSRDNAKKSLYLQMNSLRAEDTAFYHCARDDSSSLYGYFQHWGQGTLVTVSS VL: DIQMTQSPSSLSASVGDRVTITCRASQGISIYLAWYQQKPGKVPKLLIYAASTLQSGVPSRFSGSGSGTDFTLTISSLQPEDVATYYCQNYNSAPRTFGQGTKVEIK
Kd [nM]: 177

binder: Table 1 Line # 24 antibody (SP_B_cell) (antibody, human IgG4, V domains shown, Cloned with human IgG4/human Igk constants for Kd; barcode counts are of the source cell's own IgG) VH: EVQLVESGGDLVQPGTSLRLSCAASGFTFDDYAMHWVRQTPGQGLEWVSGINWNSGTIGYADSVKGRFTISRDNAKNSLFLQMNSLRAEDSAFYYCTKDIGGSYYASDFWGQGTLVTVSS VL: DIQMTQSPSSLSASVGDRVTITCRASQRISTDLNWYQQKSGKAPNLLIYGASSLQSGVPSRFSGSGSGTDFILTISTLQPEDFATYYCQQSYSTPFTFGPGTKVDIK
Kd [nM]: 207

binder: Table 1 Line # 34 antibody (SP_B_cell) (antibody, human IgG4, V domains shown, Cloned with human IgG4/human Igk constants for Kd; barcode counts are of the source cell's own IgG) VH: EVQLVASGGDLVQPGRSLRLSCAASGFTFDDFGMHWVRQAPGKGLEWVSGISWNGGHMGYAASVKGRFTMSRDNAKNSLYLQMNSLRVEDTALYYCVKEFSSSWYGFFDLWGRGTLVTVSS VL: DIQMTQSPSSLSASVGDRVTITCRASQGLGNSVAWYQQKPGQIPRLLISAAASLQSGVPSRFSGSGSGTDFTLTISSLQPEDVATYYCQNYNSAPRTFGQGTNVEIK
Kd [nM]: 34.2

binder: Table 1 Line # 53 antibody (SP_Plasma_cell) (antibody, human IgG4, V domains shown, Cloned with human IgG4/human Igk constants for Kd; barcode counts are of the source cell's own IgG) VH: EIQLVESGGGLVQPGRSLRLSCAASGFTFDDYAMHWVRQAPGKGLEWVSGINWNNGSLGYADSVKGRFTISRDNAKNSLYLQMNSLRTEDTALYYCVKDTGSWASYYGMDVWGHGTTVTVSS VL: DIQMTQSPSSLSASIGDRVTITCRASQGIRNDLGWYQQKPGKAPKRLIYAASSLQSGVPSRFSGSGSGTEFTLTISSLQPEDFATYYCLQHNSYPYTFGQGTKLEIK
Kd [nM]: 247

binder: Table 1 Line # 49 antibody (SP_Plasma_cell) (antibody, human IgG4, V domains shown, Cloned with human IgG4/human Igk constants for Kd; barcode counts are of the source cell's own IgG) VH: EVHLLESGGGFIQPGGSLRLSCAASGFTFSTYAMNWVRLAPGKGLEWVSTISGSGGFTSYTDSVQGRFTISRDNSKNKLYLQINNLTAEDTAVYYCAKDRRIVGATGFDYWGQGALVTVSS VL: DIQMTQSPSSLSASAGDRVTITCRASQSISSYLNWYQQKPGKAPKLLIYAASSLQSGVPSRFSGSGSGTDFTLTISSLQPEDSATYYCQQSYGFHTFGQGTRLEIK
Kd [nM]: 132

Now, please, on to the next binder.
Req: Fill in Kd for record Table 1 Line # 3 antibody (BM_Plasma_cell) (antibody, human IgG4, V domains shown, Cloned with human IgG4/human Igk constants for Kd; barcode counts are of the source cell's own IgG) VH: EVQLVESGGGLVQPGRSLRLSCAASGFTFDDYAMHWVRQVTGKGLEWVSGINWNSGNIGYADSVRGRFTISRDNAKNSLYLQMNSLRAEDTALYYCAKDSGSSWYGYFDLWGRGTLVTVSS VL: DIQMTQSPSTLSASVGDRVTITCRASQSISRWLAWYQQKPGKAPKFLIYKASSLESGVPSRFSGSGSGTEFTLTISSLQPDDFATYYCQQYNSDSRTFGQGTKVEIK
Resp: 537
